Origin of values: PubChem BioAssay AID1919013

Tested on: LG0703-F498-PDC complex spheroid growth
experimental_protocol: Anticancer human tumor LG0703-F498-PDC patient-derived lung adenocarcinoma cell line growth inhibition [AhR]; active means viability on the fitted dose curve at most 10% of control; inactive means the rest
condition_info: second compound 1 µM; first compound 3.16 µM
Source text: Multicellular complex tumor spheroid response to aryl hydrocarbon receptor antagonists in combination with a variety of drugs and investigational agents in selected tumor cell lines […] Compounds. […] If the clinical Cmax for an agent had not been determined, the highest concentration tested was 10 microM (Table 1). […]
Could you please pick one outcome from this set? True for active, False for inactive

Some solved entries appear below for comparison.
COc1cc(Nc2ncc3c(n2)-c2ccc(Cl)cc2C(c2c(F)cccc2OC)=NC3)ccc1C(=O)O + Cc1cncc(-c2nc(NCCc3c[nH]c4ccccc34)c3ncn(C(C)C)c3n2)c1	False
O=C(c1cc(Cc2n[nH]c(=O)c3ccccc23)ccc1F)N1CCN(C(=O)C2CC2)CC1 + Cc1cncc(-c2nc(NCCc3c[nH]c4ccccc34)c3ncn(C(C)C)c3n2)c1	False

Kindly consider the entry below.
Would you mind telling me which call this test gave COc1cccc2c1C(=O)c1c(O)c3c(c(O)c1C2=O)CC(O)(C(=O)CO)CC3OC1CC(N)C(O)C(C)O1 (stereo not drawn) + Cc1ccccc1N=Nc1ccc(NC(=O)c2ccnn2C)c(C)c1 ?
True

====

Test system: LG0703-F498-PDC complex spheroid growth
experimental_protocol: Anticancer human tumor LG0703-F498-PDC cell line growth inhibition [AhR];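 further: luminescence taken as a proxy for viable cell amount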;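 on viability, T/C: percent of DMSO vehicle control where 100% means growth equal to vehicle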
condition_info: second compound 10 µM; first compound 0.01 µM; stronger effect = lower value
Below, each entry is listed with its recorded viability, T/C.

Nc1ncn(C2CC(O)C(CO)O2)c(=O)n1 (stereo unspecified) + Cc1cncc(-c2nc(NCCc3c[nH]c4ccccc34)c3ncn(C(C)C)c3n2)c1	1.38%
Cn1ncnc1C1c2n[nH]c(=O)c3cc(F)cc(c23)NC1c1ccc(F)cc1 (stereo unspecified) + Cc1cncc(-c2nc(NCCc3c[nH]c4ccccc34)c3ncn(C(C)C)c3n2)c1	1.03%
Nc1ncn(C2CC(O)C(CO)O2)c(=O)n1 (stereo unspecified) + CC(CO)NC(=O)c1cc(-c2ccc(Cl)cc2)nn(-c2cnn(C)c2)c1=O	80.2%

Which value of viability, T/C has been reported for CC[C@@]1(O)C(=O)OCc2c1cc1n(c2=O)Cc2cc3c(CN(C)C)c(O)ccc3nc2-1 + Cc1ccccc1N=Nc1ccc(NC(=O)c2ccnn2C)c(C)c1 in the records?
63.9%

Could you tell me which viability, T/C is on file for CC[C@@]1(O)C(=O)OCc2c1cc1n(c2=O)Cc2cc3c(CN(C)C)c(O)ccc3nc2-1 + Cc1cncc(-c2nc(NCCc3c[nH]c4ccccc34)c3ncn(C(C)C)c3n2)c1 ?
1.73%

Need viability, T/C, item CC1COCCN1c1cc(-c2ccnn2C)c2ccnc(-c3ccn[nH]3)c2n1 (stereo unspecified) + Cc1ccccc1N=Nc1ccc(NC(=O)c2ccnn2C)c(C)c1
81.7%

====

The entries below are paired with their reported pIC50.
Tested on: LG0703-F498-PDC complex spheroid growth
experimental_protocol: Anticancer human tumor LG0703-F498-PDC cell line growth inhibition [AhR];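 further: luminescence taken as a proxy for viable cell amount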
condition_info: curve of first compound; second compound 0.316 µM
pIC50: −log10 of the molar value.

Worked examples, 2 compounds total:
CCN(c1cc(-c2ccc(CN3CCOCC3)cc2)cc(C(=O)NCc2c(C)cc(C)[nH]c2=O)c1C)C1CCOCC1 + Cc1ccccc1N=Nc1ccc(NC(=O)c2ccnn2C)c(C)c1	< 5.52
O=C(c1cc(Cc2n[nH]c(=O)c3ccccc23)ccc1F)N1CCN(C(=O)C2CC2)CC1 + Cc1cncc(-c2nc(NCCc3c[nH]c4ccccc34)c3ncn(C(C)C)c3n2)c1	< 5.00

Given the compound Nc1ncn(C2CC(O)C(CO)S2)c(=O)n1 (stereo not drawn) + Cc1cncc(-c2nc(NCCc3c[nH]c4ccccc34)c3ncn(C(C)C)c3n2)c1 , what is its reported pIC50?
< 6.52

====

Tested on: LG0703-F498-PDC complex spheroid growth
experimental_protocol: Anticancer human tumor LG0703-F498-PDC cell line growth inhibition [AhR];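 further: luminescence taken as a proxy for viable cell amount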;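 on viability, T/C: percent of DMSO vehicle control where 100% means growth equal to vehicle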
condition_info: second compound 1 µM; first compound 0.316 µM; stronger effect = lower value
Just a reminder that ties go to N: only viability, T/C strictly below 70% counts as Y.

Answered cases to consult:
COc1cc(Nc2ncc3c(n2)-c2ccc(Cl)cc2C(c2c(F)cccc2OC)=NC3)ccc1C(=O)O + Cc1ccccc1N=Nc1ccc(NC(=O)c2ccnn2C)c(C)c1	Y
COc1ccc([C@@H](O)c2cc(-c3ncnc4cc(N5CCOCC5)ccc34)c(F)cc2Cl)nn1 + Cc1ccccc1N=Nc1ccc(NC(=O)c2ccnn2C)c(C)c1	N
NS(=O)(=O)OCC1CC(n2ccc3c(NC4CCc5ccccc54)ncnc32)CC1O (stereo not drawn) + CC(CO)NC(=O)c1cc(-c2ccc(Cl)cc2)nn(-c2cnn(C)c2)c1=O	Y
COc1ccc([C@@H](O)c2cc(-c3ncnc4cc(N5CCOCC5)ccc34)c(F)cc2Cl)nn1 + CC(CO)NC(=O)c1cc(-c2ccc(Cl)cc2)nn(-c2cnn(C)c2)c1=O	N
CC1(C)CCC(CN2CCN(c3ccc(C(=O)NS(=O)(=O)c4ccc(NCC5CCOCC5)c([N+](=O)[O-])c4)c(Oc4cnc5[nH]ccc5c4)c3)CC2)=C(c2ccc(Cl)cc2)C1 + Cc1ccccc1N=Nc1ccc(NC(=O)c2ccnn2C)c(C)c1	N
COc1cccc2c1C(=O)c1c(O)c3c(c(O)c1C2=O)CC(O)(C(=O)CO)CC3OC1CC(N)C(O)C(C)O1 (stereo not drawn) + Cc1ccccc1N=Nc1ccc(NC(=O)c2ccnn2C)c(C)c1	Y

Now turn to the next compound.
Is viability, T/C strictly under 70% for the entry CC1COCCN1c1cc(-c2ccnn2C)c2ccnc(-c3ccn[nH]3)c2n1 (stereo not drawn) + Cc1cncc(-c2nc(NCCc3c[nH]c4ccccc34)c3ncn(C(C)C)c3n2)c1 ?
Y

====

Each entry below carries its reported viability, T/C.
System: LG0703-F498-PDC complex spheroid growth
experimental_protocol: Anticancer human tumor LG0703-F498-PDC cell line growth inhibition [AhR];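 further: luminescence taken as a proxy for viable cell amount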;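 on viability, T/C: percent of DMSO vehicle control where 100% means growth equal to vehicle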
condition_info: second compound 3.16 µM; first compound 1 µM; stronger effect = lower value
Source text: Multicellular complex tumor spheroid response to aryl hydrocarbon receptor antagonists in combination with a variety of drugs and investigational agents in selected tumor cell lines […] Compounds. […] If the clinical Cmax for an agent had not been determined, the highest concentration tested was 10 microM (Table 1). […]
All answers are understood in %, so give the number only.

Sample answers from the record:
CC(C)c1c(-c2ccccc2)nc2c(C#N)c[nH]n2c1=O + Cc1ccccc1N=Nc1ccc(NC(=O)c2ccnn2C)c(C)c1	77.6
CC1COCCN1c1cc(-c2ccnn2C)c2ccnc(-c3ccn[nH]3)c2n1 (configuration not stated) + Cc1cncc(-c2nc(NCCc3c[nH]c4ccccc34)c3ncn(C(C)C)c3n2)c1	15.7
O=C(c1cc(Cc2n[nH]c(=O)c3ccccc23)ccc1F)N1CCN(C(=O)C2CC2)CC1 + Cc1cncc(-c2nc(NCCc3c[nH]c4ccccc34)c3ncn(C(C)C)c3n2)c1	46.2
Nc1ccn(C2OC(CO)C(O)C2(F)F)c(=O)n1 (configuration not stated) + CC(CO)NC(=O)c1cc(-c2ccc(Cl)cc2)nn(-c2cnn(C)c2)c1=O	39.2
CC1COCCN1c1cc(C2(S(C)(=N)=O)CC2)nc(-c2ccnc3[nH]ccc23)n1 (configuration not stated) + Cc1cncc(-c2nc(NCCc3c[nH]c4ccccc34)c3ncn(C(C)C)c3n2)c1	17.1

Enter reported viability, T/C observed with LG0703-F498-PDC complex spheroid growth for CC(C)c1c(-c2ccccc2)nc2c(C#N)c[nH]n2c1=O + Cc1cncc(-c2nc(NCCc3c[nH]c4ccccc34)c3ncn(C(C)C)c3n2)c1
31.7

Entry Nc1ccn(C2OC(CO)C(O)C2(F)F)c(=O)n1 (configuration not stated) + Cc1cncc(-c2nc(NCCc3c[nH]c4ccccc34)c3ncn(C(C)C)c3n2)c1 , system LG0703-F498-PDC complex spheroid growth: what viability, T/C was measured?
19.5

====

Recorded IC50 by entry
System: LG0703-F498-PDC complex spheroid growth
experimental_protocol: Anticancer human tumor LG0703-F498-PDC cell line growth inhibition [AhR];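 further: luminescence taken as a proxy for viable cell amount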
condition_info: curve of first compound; second compound 0.316 µM

Before answering, review these 2 worked examples.
Nc1ncn(C2CC(O)C(CO)S2)c(=O)n1 (stereo not drawn) + CC(CO)NC(=O)c1cc(-c2ccc(Cl)cc2)nn(-c2cnn(C)c2)c1=O	> 0.3 µM
Cn1ncnc1C1c2n[nH]c(=O)c3cc(F)cc(c23)NC1c1ccc(F)cc1 (stereo not drawn) + CC(CO)NC(=O)c1cc(-c2ccc(Cl)cc2)nn(-c2cnn(C)c2)c1=O	> 0.1 µM

Please find the next compound below.
Quick one: IC50 of COc1cc(C2c3cc4c(cc3C(OC3OC5COC(C)OC5C(O)C3O)C3COC(=O)C23)OCO4)cc(OC)c1O (stereo not drawn) + Cc1ccccc1N=Nc1ccc(NC(=O)c2ccnn2C)c(C)c1 ?
> 10 µM

====

System: LG0703-F498-PDC complex spheroid growth
experimental_protocol: Anticancer human tumor LG0703-F498-PDC cell line growth inhibition [AhR];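 further: luminescence taken as a proxy for viable cell amount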;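 on viability, T/C: percent of DMSO vehicle control where 100% means growth equal to vehicle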
condition_info: second compound 10 µM; first compound 0.00949 µM; stronger effect = lower value
Binarize viability, T/C at 60%; below is Yes, at or above is No.

O=C(C=Cn1cnc(-c2cc(C(F)(F)F)cc(C(F)(F)F)c2)n1)NNc1cnccn1 + Cc1ccccc1N=Nc1ccc(NC(=O)c2ccnn2C)c(C)c1	No
CCc1c2c(nc3ccc(O)cc13)-c1cc3c(c(=O)n1C2)COC(=O)[C@]3(O)CC + CC(CO)NC(=O)c1cc(-c2ccc(Cl)cc2)nn(-c2cnn(C)c2)c1=O	Yes
CCN(c1cc(-c2ccc(CN3CCOCC3)cc2)cc(C(=O)NCc2c(C)cc(C)[nH]c2=O)c1C)C1CCOCC1 + Cc1cncc(-c2nc(NCCc3c[nH]c4ccccc34)c3ncn(C(C)C)c3n2)c1	Yes
Nc1ncn(C2CC(O)C(CO)S2)c(=O)n1 (stereo unspecified) + CC(CO)NC(=O)c1cc(-c2ccc(Cl)cc2)nn(-c2cnn(C)c2)c1=O	No

Moving on to the next compound.
Is viability, T/C of O=C(C=Cn1cnc(-c2cc(C(F)(F)F)cc(C(F)(F)F)c2)n1)NNc1cnccn1 + Cc1cncc(-c2nc(NCCc3c[nH]c4ccccc34)c3ncn(C(C)C)c3n2)c1 strictly below 60%?
Yes
